target: ligand binding domain of thyroid hormone receptor alpha (Homo sapiens (Human), UniProt P10827); test: Thyroid hormone receptor TR-FRET binding assay (TRα LBD); conditions: TRα LBD 4 nM
Sequence (P10827 other isoform, or with tags, fused parts or gaps del 1-162, other chains not shown): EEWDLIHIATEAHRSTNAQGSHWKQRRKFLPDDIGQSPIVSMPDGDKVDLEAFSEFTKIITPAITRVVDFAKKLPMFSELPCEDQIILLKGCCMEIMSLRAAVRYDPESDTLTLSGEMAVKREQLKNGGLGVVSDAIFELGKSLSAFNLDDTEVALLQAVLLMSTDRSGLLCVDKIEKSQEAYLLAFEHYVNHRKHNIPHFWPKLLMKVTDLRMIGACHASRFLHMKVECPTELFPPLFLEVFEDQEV
In plain terms, low EC50, meaning strictly below 4 µM, gives YES, and everything else gives NO.

Task: Identify whether the compound CCc1nn(-c2cc(Cl)c(Oc3cc(C(C)C)c(=O)[nH]n3)c(Cl)c2)c(=O)[nH]c1=O records EC50 below 4 µM.
Result: NO

Task: Identify whether the compound CC(=O)N1CCC(c2cc(Oc3c(Cl)cc(-n4nc(C#N)c(=O)[nH]c4=O)cc3Cl)n[nH]c2=O)CC1 records EC50 below 4 µM.
Result: NO

Task: Identify whether the compound Cc1cc(-n2nc(C#N)c(=O)[nH]c2=O)c(F)c(C)c1Oc1cc(C(C)C)c(=O)[nH]n1 records EC50 below 4 µM.
Result: NO

Task: Identify whether the compound Cc1nn(-c2cc(Cl)c(Oc3cc(C4CCCCC4)c(=O)[nH]n3)c(Cl)c2)c(=O)[nH]c1=O records EC50 below 4 µM.
Result: NO

Task: Identify whether the compound N#Cc1nn(-c2cc(Cl)c(Oc3cc(C4CC4)c(=O)[nH]n3)c(C(F)(F)F)c2)c(=O)[nH]c1=O records EC50 below 4 µM.
Result: YES

Task: Identify whether the compound Cc1nn(-c2cc(Cl)c(Oc3cc(Cc4ccc(O)cc4)c(=O)[nH]n3)c(Cl)c2)c(=O)[nH]c1=O records EC50 below 4 µM.
Result: YES

Task: Identify whether the compound N#Cc1nn(-c2cc(Cl)c(Oc3cc(Cc4ccc(O)cc4)c(=O)[nH]n3)c(Cl)c2)c(=O)[nH]c1=O records EC50 below 4 µM.
Result: YES

Task: Identify whether the compound Cc1nn(-c2cc(Cl)c(Oc3cc(Cc4cccc(F)c4)c(=O)[nH]n3)c(Cl)c2)c(=O)[nH]c1=O records EC50 below 4 µM.
Result: NO

Task: Identify whether the compound N#Cc1nn(-c2cc(Br)c(Oc3cc(C4CCCC4)c(=O)[nH]n3)c(Br)c2)c(=O)[nH]c1=O records EC50 below 4 µM.
Result: NO

Task: Identify whether the compound N#Cc1nn(-c2ccc(Oc3cc(C4CC4)c(=O)[nH]n3)c(Cl)c2)c(=O)[nH]c1=O records EC50 below 4 µM.
Result: NO

Task: Identify whether the compound N#Cc1nn(-c2cc(Cl)c(Oc3cc(CC4CCC(O)CC4)c(=O)[nH]n3)c(Cl)c2)c(=O)[nH]c1=O (stereo not drawn) records EC50 below 4 µM.
Result: NO

###

target: ligand binding domain of thyroid hormone receptor beta (Homo sapiens (Human), UniProt P10828); experiment: Thyroid hormone receptor TR-FRET binding assay (TRβ LBD); settings: TRβ LBD 2 nM
Sequence (P10828 217-461): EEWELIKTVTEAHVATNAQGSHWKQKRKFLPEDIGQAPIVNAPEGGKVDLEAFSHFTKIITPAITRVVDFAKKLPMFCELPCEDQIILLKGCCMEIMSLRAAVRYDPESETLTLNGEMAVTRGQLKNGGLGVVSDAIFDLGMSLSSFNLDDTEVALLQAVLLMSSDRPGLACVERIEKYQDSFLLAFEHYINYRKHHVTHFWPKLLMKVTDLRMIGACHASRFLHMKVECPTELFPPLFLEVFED
ENDPOINT_LABEL: pEC50
On this scale, pEC50 is minus log10 of a concentration expressed in M (mol/L).

Task: Name the recorded pEC50 of the item CC(c1cc(Oc2c(Cl)cc(-n3nc(C#N)c(=O)[nH]c3=O)cc2Cl)n[nH]c1=O)C1CCCCC1 (single isomer, unassigned) [Compound 92] in your answer.
Result: 6.54

Task: Name the recorded pEC50 of the item CC(C)c1c[nH]c2ccc(Oc3c(Cl)cc(-n4nc(C#N)c(=O)[nH]c4=O)cc3Cl)cc12 [Compound 56] in your answer.
Result: 7.05

Task: Name the recorded pEC50 of the item N#Cc1nn(-c2cc(Cl)c(Oc3cc(CC4CCCCC4)c(=O)[nH]n3)c(Cl)c2)c(=O)[nH]c1=O [Compound 17] in your answer.
Result: 6.14

Task: Name the recorded pEC50 of the item CC(c1ccccc1)c1cc(Oc2c(Cl)cc(-n3nc(C#N)c(=O)[nH]c3=O)cc2C(F)(F)F)n[nH]c1=O (single isomer, unassigned) [Compound 95] in your answer.
Result: 6.62

Task: Name the recorded pEC50 of the item Cc1nn(-c2cc(Br)c(Oc3cc(C(C)C)c(=O)[nH]n3)c(Br)c2)c(=O)[nH]c1=O [Compound 46] in your answer.
Result: 7.52

Task: Name the recorded pEC50 of the item Cc1nn(-c2cc(Cl)c(Oc3cc(C(C)C4CCCCC4)c(=O)[nH]n3)c(Cl)c2)c(=O)[nH]c1=O (centres unmarked) [Compound 61] in your answer.
Result: 6.82

Task: Name the recorded pEC50 of the item CC(c1ccccc1)c1cc(Oc2c(Cl)cc(-n3nc(C#N)c(=O)[nH]c3=O)cc2C(F)(F)F)n[nH]c1=O (racemic) [Compound 94] in your answer.
Result: 6.30

Task: Name the recorded pEC50 of the item N#Cc1nn(-c2cc(Cl)c(Oc3cc(C4CC4)c(=O)[nH]n3)c(C(F)(F)F)c2)c(=O)[nH]c1=O [Compound 65] in your answer.
Result: 6.82

Task: Name the recorded pEC50 of the item CC(C)c1nn(-c2c(Cl)cc(-n3nc(C#N)c(=O)[nH]c3=O)cc2Cl)c2ccc(O)cc12 [Compound 91] in your answer.
Result: 6.37

Task: Name the recorded pEC50 of the item Cc1nn(-c2cc(Cl)c(Oc3cc(CC4CCCC4)c(=O)[nH]n3)c(Cl)c2)c(=O)[nH]c1=O [Compound 59] in your answer.
Result: 6.72

Task: Name the recorded pEC50 of the item N#Cc1nn(-c2cc(Cl)c(Oc3cc(C4CCCC4)c(=O)[nH]n3)c(Cl)c2)c(=O)[nH]c1=O [Compound 2] in your answer.
Result: 6.12

Task: Name the recorded pEC50 of the item CC(c1cc(Oc2c(Cl)cc(-n3nc(C#N)c(=O)[nH]c3=O)cc2Cl)n[nH]c1=O)C1CCCCC1 (single isomer, unassigned) [Compound 93] in your answer.
Result: 5.81

Task: Name the recorded pEC50 of the item Cc1nn(-c2cc(Cl)c(Oc3cc(Cc4cccc(F)c4)c(=O)[nH]n3)c(Cl)c2)c(=O)[nH]c1=O [Compound 68] in your answer.
Result: 6.11

###

biological target: ligand binding domain of thyroid hormone receptor beta (Homo sapiens (Human), UniProt P10828); assay: Thyroid hormone receptor TR-FRET binding assay (TRβ LBD); settings: TRβ LBD 2 nM
pEC50: −log10 of the molar value.
ENDPOINT_LABEL: pEC50

Task: Name the recorded pEC50 of the item N#Cc1nn(-c2cc(Cl)c(Oc3cc(-c4ccccc4)c(=O)[nH]n3)c(Cl)c2)c(=O)[nH]c1=O in your answer.
Result: < 5.00

Task: Name the recorded pEC50 of the item CC(O)(CO)c1ccc(Cc2cc(Oc3c(Cl)cc(-n4nc(C#N)c(=O)[nH]c4=O)cc3Cl)n[nH]c2=O)cc1 (stereo not drawn) in your answer.
Result: < 4.05

Task: Name the recorded pEC50 of the item CC(C)c1cc(Oc2c(Cl)cc(-n3nc(C(C)C)c(=O)[nH]c3=O)cc2Cl)n[nH]c1=O in your answer.
Result: < 4.05

###

Exercise: for every item that follows, state its recorded EC50.
molecular target: ligand binding domain of thyroid hormone receptor beta (Homo sapiens (Human), UniProt P10828); experiment: Thyroid hormone receptor TR-FRET binding assay (TRβ LBD); settings: TRβ LBD 2 nM

Task: Name the recorded EC50 of the item N#Cc1nn(-c2cc(Cl)c(Oc3cc(CCc4ccccc4)c(=O)[nH]n3)c(Cl)c2)c(=O)[nH]c1=O [Compound 26] in your answer.
Result: > 10 µM

Task: Name the recorded EC50 of the item CC(=O)N1CCC(c2cc(Oc3c(Cl)cc(-n4nc(C#N)c(=O)[nH]c4=O)cc3Cl)n[nH]c2=O)CC1 [Compound 19] in your answer.
Result: > 90 µM

Task: Name the recorded EC50 of the item Cc1cc(OCP(=O)(O)O)cc(C)c1Cc1cc(C(C)C)c(=O)[nH]n1 [Compound 85] in your answer.
Result: > 90 µM

Task: Name the recorded EC50 of the item N#Cc1nn(-c2cc(Cl)c(Oc3cc(Cc4cccc(O)c4)c(=O)[nH]n3)c(Cl)c2)c(=O)[nH]c1=O [Compound 34] in your answer.
Result: > 90 µM

Values were extracted from patent US12391677B2.
